ASSAY: qHTS Assay for Inhibitors of Hepatitis C Virus (HCV): Confirmation Assay for Cherry-picked Compounds; further: potency means the concentration at half of the fitted maximal effect; nearly all actives have a fitted effect of over 80% in size
MEASUREMENT PARAMETERS: HCVcc-Cre infectious virus cell assay, luciferase, inhibition
This is one part of the list. Results filed as inconclusive are left out. Activity calls are given as the source filed them. The call rests on the fitted dose curve; in most records, active means well fitted inhibition curve with a large enough effect; inconclusive means small, poorly fitted or top-dose-only effect; inactive means no such curve, though single readings can be large or run the other way.
Consider the following compounds and their measured Potency readings.

# COMPOUND, Potency
rows = [
    ("COc1ccc(C(C(=O)NC2CCCCC2)N(C(=O)CCl)c2ccccc2Cl)cc1 (stereo unspecified)", "3.15 µM (active)"),
    ("CCC(C(=O)OCC(=O)Nc1ccc(C(=O)Nc2ccc(OC)cc2)cc1)c1ccccc1 (stereo unspecified)", "8.87 µM (active)"),
    ("Cc1ccc(C)c(N2CCN(C(=O)CCCCCn3c(=S)[nH]c4ccc(N5CCOCC5)cc4c3=O)CC2)c1", "2.8 µM (active)"),
    ("COc1ccc(OCCNC(=O)c2cc(C3CC3)nc3c2cnn3C(C)C)cc1", "0.353 µM (active)"),
    ("COc1ccc(NC(=O)c2sc(N3CCOCC3)nc2-c2ccccc2)c(OC)c1", "14.1 µM (active)"),
    ("Cc1ccc(C)c(NC(=S)NNC(=S)Nc2ccc(C(C)C)cc2)c1", "22.3 µM (active)"),
]
